system-name: human uromodulin (human, UniProt P07911 25-614)
test: competition ELISA; biotin-uromodulin + peptide on coated light chain ROC (competitor)
Positions of bridges follow the written chain, without caps; N, C: chain ends. Non-standard residues stand in square brackets, D forms with d. No end group written: not given here.
readout-type: pIC50
// returns pIC50 (minus log10 of molar concentration), number only

Look up and report measured pIC50 for this entry: [dK][dK]CQQS[dY]SIPYTC[dK][dK] (disulfide 3-13 (inferred), synthetic; disulfide bridge formed per general procedure; also called K*K*CQQSY*SIPYTCK*K*) [SEQ ID No. 47]
4.47

Entry source: patent US9611297
